- System: Bacteroides stercoris
- Assay Procedure: growth AUC relative to DMSO control (median of replicates) (fraction); higher = more growth (less inhibition), active = hit call of the paper
- Details: 20 µM; 24 h
Recorded Metric: growth AUC
Returns: the value as a bare number; no unit string appended.

Query block: # query: growth AUC of entry COC(=O)c1csc(C)c1S(=O)(=O)NC(=O)n1nc(OC)n(C)c1=O
Result block: 1.02

Query block: Quick one: CCSC(=O)COc1ccc(Cl)cc1C
Result block: 0.997

Query block: Record: C=CCc1ccc(O)c(OC)c1
Result block: 0.975

====

- System: Eubacterium rectale
- Assay Procedure: growth AUC relative to DMSO control (median of replicates) (fraction); higher = more growth (less inhibition), active = hit call of the paper
- Details: 20 µM; 24 h
Recorded Metric: growth AUC
Lab note: jot down the number only; don't add units.

Below are worked cases with known answers.
Compound	growth AUC
O=C(O)COc1cc(N2C(=O)C3=C(CCCC3)C2=O)c(F)cc1Cl	1.03
COC(=O)C(C)Oc1ccc(Cl)cc1Cl (stereo not drawn)	1.14
CNC(=O)Nc1nc2ccccc2s1	1.03
CCCCC(CC)COC(=O)COc1cc(Cl)c(Cl)cc1Cl (stereo not drawn)	0.903
CNC(=O)/C(=N/OC)c1ccccc1CO/N=C(C)/C(=N/OC)C(/C)=N/OC	0.928

Query block: Any idea what growth AUC was measured for NC(Cn1cncn1)C(=O)O (stereo not drawn) ?
Result block: 0.93

Query block: Also need CCOC(=O)NCCOc1ccc(Oc2ccccc2)cc1 , thanks.
Result block: 0.956

Query block: Another compound: CC(C)c1cccc2c(=O)c3ccccc3sc12
Result block: 1

Query block: And for FC(F)(F)/N=C1\SC(=Nc2ccccc2)N(c2ccccc2)\C1=N\C(F)(F)F ?
Result block: 1.3

Query block: Repeat for the following compound: Cc1cccc(C)c1N(CCSCC(O)C(=O)[O-])C(=O)CO.[Na+] (stereo not drawn)
Result block: 1.07

====

Quick list: growth AUC per entry.
- Test system: Bacteroides clarus
- Assay Procedure: growth AUC relative to DMSO control (median of replicates) (fraction); higher = more growth (less inhibition), active = hit call of the paper
- Details: 20 µM; 24 h
Quick one: just the number, no unit, thanks!

Some molecules with known growth AUC results, for comparison:
Molecule	growth AUC
CC(C)c1nn(C(=O)NC(C)(C)C)c(=O)n1N	0.976
CC(C)OC(=O)[C@@H](C)N(C(=O)c1ccccc1)c1ccc(F)c(Cl)c1	0.99
[O-][n+]1nc(-n2ccnc2)nc2ccc(Cl)cc21	1

Query block: What measured growth AUC is associated with [S] on Bacteroides clarus?
Result block: 1

Query block: Same for CC(C)c1cccc2c(=O)c3ccccc3sc12
Result block: 1.03

Query block: What about CN1CCC[C@H]1c1cccnc1 ?
Result block: 0.997

Query block: What would you report for CCC(C)Nc1nc(N)nc(Cl)n1 (stereo unspecified) ?
Result block: 0.995

====

- Test system: Roseburia intestinalis
- Assay Procedure: growth AUC relative to DMSO control (median of replicates) (fraction); higher = more growth (less inhibition), active = hit call of the paper
- Details: 20 µM; 24 h
# Lookup of reported growth AUC keyed by entry
Give the value as a plain number.

// worked examples, growth AUC included
Molecule	Target Of Assay	growth AUC
COc1cc(OC)nc(NC(=O)NS(=O)(=O)c2c(-c3nnn(C)n3)cnn2C)n1	Roseburia intestinalis	0.948
CCOCCc1ccc(OCCNc2ncnc(CC)c2Cl)c(C)c1C	Roseburia intestinalis	0.923
Cc1nc(C(F)(F)F)c(C(=O)Nc2c(Br)cc(OC(F)(F)F)cc2Br)s1	Roseburia intestinalis	1.08
CC(C)N(C(=O)CS(=O)(=O)[O-])c1ccccc1.[Na+]	Roseburia intestinalis	1.02
O=C(NCc1ncc(C(F)(F)F)cc1Cl)c1c(Cl)cccc1Cl	Roseburia intestinalis	0.968

Query block: What value of growth AUC has been reported for the following molecule? COC(=O)c1ccccc1S(=O)(=O)NC(=O)Nc1nc(OC(F)F)cc(OC(F)F)n1
Result block: 1.01

Query block: Now this one: Clc1ccc(C(c2ccccc2Cl)C(Cl)Cl)cc1 (stereo not given)
Result block: 0.911

Query block: Next molecule: Br[C@@H]1CC[C@@H](Br)[C@@H](Br)CC[C@H](Br)[C@H](Br)CC[C@H]1Br
Result block: 1.43

Query block: Try this molecule next: NC(=O)c1c(Cl)cccc1Cl
Result block: 0.906

Query block: c1ccc2c(c1)-c1cccc3c1c-2cc1ccccc13 , same question.
Result block: 0.998
